Origin of values: PubChem BioAssay AID504765

Biological target: glucose-6-phosphate dehydrogenase-6-phosphogluconolactonase (Plasmodium falciparum 3D7)
Assay: concentration-dependent PfGluPho enzyme inhibition – biochemical, fluorescence intensity, dose response (AID 504765)
Conditions: Recombinant PfG6PD enzyme, fluorescence intensity (NADPH)
Activity calls are given as the source filed them. The rule behind the calls is not given here.
Your reply should match one of these outcome classes. active, inactive

Request: Write down the call the test reported for this molecule. Item: Cn1c(=O)[nH]c(=O)c2c1[nH]c(=S)n2CCCc1ccccc1
Response: inactive

Continuing:
Request: Write down the call the test reported for this molecule. Item: O=C1C=CC(=O)N1CCNc1ncc(C(F)(F)F)cc1Cl
Response: active

Request: Write down the call the test reported for this molecule. Item: COc1ccc(C(=O)Nc2sc3c(c2C(=O)O)CC(C)(C)OC3)cc1
Response: active

Request: Write down the call the test reported for this molecule. Item: Cc1nc2ccccn2c1-c1ccnn1S(=O)(=O)c1ccc(F)cc1
Response: active

Request: Write down the call the test reported for this molecule. Item: O=S(=O)(Nc1cc(Sc2cccc3cccnc23)c(O)c2ccccc12)c1ccc(F)cc1
Response: active

###

Biological target: glucose-6-phosphate dehydrogenase-6-phosphogluconolactonase (Plasmodium falciparum 3D7)
Test: concentration-dependent PfGluPho enzyme inhibition – biochemical, fluorescence intensity, dose response (AID 504765)
Conditions: Recombinant PfG6PD enzyme, fluorescence intensity (NADPH)
Activity calls are given as the source filed them. No rule for the calls is given here.
measurement.kind: IC50

# count of solved cases: 5
Given item O=S(=O)(Nc1ccc(Cl)cc1)c1ccc(N2CCOCC2)c(NC(=S)NCCN2CCOCC2)c1 , the value recorded as its IC50 is 15.1 µM

Given item COc1cccc(-c2c(C(=O)N/N=C/c3ccc(C)o3)nnn2-c2nonc2N)c1 , the value recorded as its IC50 is 13.2 µM

Given item C[C@]12CC[C@@H]3c4ccc(O)c(O)c4CC[C@H]3[C@@H]1CC[C@@H]2O , the value recorded as its IC50 is 4.02 µM

Given item Oc1ccc(C23CC4CC(CC(C4)C2)C3)cc1O , the value recorded as its IC50 is inactive

Given item Oc1ccc(/C=N/N=C(c2ccccc2)c2ccccc2)c(O)c1O , the value recorded as its IC50 is 13.6 µM

// for each compound below, give its IC50
1. O=C(Nc1nnc(S(=O)(=O)N2CCOCC2)s1)c1cccc(Br)c1
2. CCN(CC)c1ccc(C(=C2C=CC(=[N+](CC)CC)C=C2)c2ccc(N(CC)CC)cc2)cc1
3. CN1CCN(C(=S)c2ccc([N+](=O)[O-])cc2)CC1

Response:
5.58 µM
10.3 µM
inactive

###

Biological target: glucose-6-phosphate dehydrogenase-6-phosphogluconolactonase (Plasmodium falciparum 3D7)
Assay: concentration-dependent PfGluPho enzyme inhibition – biochemical, fluorescence intensity, dose response (AID 504765)
Details: Recombinant PfG6PD enzyme, fluorescence intensity (NADPH)
Calls of active or inactive are those of the source. How the calls were made is not given here.
Your reply should match one of these outcome classes. active, inactive

Consider the worked cases shown below.
Request: Write down the call the test reported for this molecule. Item: Cc1cc(C)c2c(=O)n(CC(=O)Nc3cccc(Cl)c3C)sc2n1
Response: active

Request: Write down the call the test reported for this molecule. Item: O=C(Nc1nnc(S(=O)(=O)N2CCOCC2)s1)c1ccc(F)cc1
Response: active

Request: Write down the call the test reported for this molecule. Item: Cc1ccc(/C=C/C(=O)NCc2ccc(S(N)(=O)=O)cc2)o1
Response: active

Continuing:
Request: Write down the call the test reported for this molecule. Item: C#CCCc1cscc1/C=[N+](\[O-])c1ccc(C(=O)OCC)cc1
Response: active

Request: Write down the call the test reported for this molecule. Item: COc1ccc(C(=O)Nc2nnc(S(=O)(=O)N3CCOCC3)s2)cc1
Response: active

Request: Write down the call the test reported for this molecule. Item: Cc1cc(C)c[n+](C2=C([O-])c3ccccc3C(=O)/C2=N\S(=O)(=O)c2cccs2)c1
Response: active

Request: Write down the call the test reported for this molecule. Item: O=C(COc1cccc2ccccc12)Nc1ccc(Cl)cc1C(=O)O
Response: active

Request: Write down the call the test reported for this molecule. Item: COc1ccc(CN(C)S(=O)(=O)c2nnc(NC(=O)c3ccc(C)cc3)s2)cc1OC
Response: active

Request: Write down the call the test reported for this molecule. Item: CCN(CC)c1ccc(NC(=O)c2cccc(C)c2)cc1S(=O)(=O)Nc1ccccc1OC
Response: inactive

Request: Write down the call the test reported for this molecule. Item: Nc1cc(N)c(OCC(F)(F)F)cc1OCC(F)(F)F
Response: active

Request: Write down the call the test reported for this molecule. Item: Cc1ccccc1N/C(SCc1cccc(Br)c1)=C(/C#N)C(N)=O
Response: active

Request: Write down the call the test reported for this molecule. Item: CN=c1nc(-c2ccccc2)n(-c2ccccc2)s1
Response: active

Request: Write down the call the test reported for this molecule. Item: COc1cc(N(C)C)ccc1C=c1c2ccccc2n2c1cc(-c1ccccc1)[n+]2C
Response: active

Request: Write down the call the test reported for this molecule. Item: O=C(Cn1sc2ccccc2c1=O)Nc1ccc(Br)cc1
Response: active

Request: Write down the call the test reported for this molecule. Item: Cc1cc(C)c(S(=O)(=O)/N=C2/C=C(SCC(=O)O)C(=O)c3ccccc32)cc1C
Response: active

Request: Write down the call the test reported for this molecule. Item: C[C@H](NC(=O)c1cc2c(cn1)[nH]c1ccccc12)C(=O)O
Response: inactive

Request: Write down the call the test reported for this molecule. Item: Cc1ccc(S(=O)(=O)Oc2cccc(/C=N/Nc3ccc(C(=O)O)cc3)c2)cc1
Response: active

Request: Write down the call the test reported for this molecule. Item: CC1CN(c2ccccc2)NC1=O (stereo unspecified)
Response: active

Request: Write down the call the test reported for this molecule. Item: Clc1cccc(Cl)c1CNc1ccc(N2CCCC2)cc1
Response: active

Request: Write down the call the test reported for this molecule. Item: COc1cccc(C(=O)Nc2nnc(S(=O)(=O)N(C)Cc3ccccc3)s2)c1
Response: active

Request: Write down the call the test reported for this molecule. Item: Cn1sc2ccccc2c1=O
Response: active
